Target: MyD88^TIR (Homo sapiens, UniProt Q99836)
Construct: MyD88 (residues 148–296); 6xHis; made in house; host or cells: E. coli BL21 (DE3)
Sequence (Q99836 148-296): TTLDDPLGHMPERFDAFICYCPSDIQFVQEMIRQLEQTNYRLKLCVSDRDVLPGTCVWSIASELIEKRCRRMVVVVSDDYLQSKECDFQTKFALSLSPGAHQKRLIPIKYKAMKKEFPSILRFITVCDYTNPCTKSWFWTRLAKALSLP
Assay: T‐Surf phage library (P8 and P3) selection against MyD88^TIR, four rounds, NGS read counts
Type: binding
Settings: P8_MyD88: rank by count before grouping
Protocol: T‐Surf libraries were screened against the immobilized TIR domains of two major human TLR adaptor proteins, MAL^TIR and MyD88^TIR, allowing cross‐species selection of TIR‐binding motifs with 190 946 TIR‐derived peptides in a single binding assay (Scheme 1). Enriched phage pools from the fourth round of selection were analyzed using NGS after barcoding the peptide‐coding regions of the phage pools. […]
Metric: Rank (before)

Solved cases below.
> print(dat)
   biopolymer.sequence         metric  observed
1     WALDELLQILYARERF  Rank (before)      1466
2     WDFASNMEQLLDRLYY  Rank (before)      1626
3     FIDFLFDAFETKGIFV  Rank (before)       107

I. DPQDLDGCYERLVSLF
II. YYFTDWDSEAEIIQKM
Which has the smaller recorded Rank (before), I or II ? Indicate which entry you chose by stating its label. II

P. DPQDQEWFYERLFSHV
Q. SMTPLSDFWKELALVL
R. VRHTFAGYLYDALNRL
S. WALNELLKILHARELF
T. FDASSSWALDELLRILY
Falling order of Rank (before), please. Would you mind listing the labels in the order asked for? P, S, T, R, Q
(P: 2970, S: 1546, T: 813, R: 155, Q: 101)

I. NDSLFWDRLPYSLNVT
II. EIARQLLSEYLNIAVY
I need your help: which of the pair I , II has higher Rank (before)? Indicate which entry you chose by stating its label. I

###

target: MAL^TIR (Homo sapiens); construct: MAL (residues 79–221); 6xHis; made in house; host or cells: E. coli BL21 (DE3); assay: T‐Surf phage library (P8 and P3) selection against MAL^TIR, four rounds, NGS read counts; assay type: binding; settings: P3_MAL: rank by count after grouping
Sequence (P58753 79-221): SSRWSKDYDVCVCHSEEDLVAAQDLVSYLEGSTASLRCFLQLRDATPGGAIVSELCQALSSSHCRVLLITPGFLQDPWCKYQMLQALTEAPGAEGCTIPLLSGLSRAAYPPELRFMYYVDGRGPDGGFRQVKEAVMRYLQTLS
Metric: Rank (after)

> print(dat)
   biopolymer.sequence        metric  observed
1     WHFHLRLRMPDPLQKI  Rank (after)       432
2     AFSNNEYKCVETALMN  Rank (after)       467
3     YAFTGHLHRYLVQHCE  Rank (after)       115
4     RRTFLSHLQHHFASKG  Rank (after)        98
5      MSHLYQGLKNRGIFT  Rank (after)       117

A. CLLKWKEALHQFHSGV
B. YALPAICIVIWCSVA
Which has the smaller recorded Rank (after), A or B ? Indicate which entry you chose by stating its label. B
(B: 138, A: 447)

I. DWCLSKLSQHTLKREK
II. NQWRNALTAATNLSGG
Which has the smaller recorded Rank (after), I or II ? Indicate which entry you chose by stating its label. II

###

biological target: MyD88^TIR (Homo sapiens, UniProt Q99836); construct: MyD88 (residues 148–296); 6xHis; made in house; host or cells: E. coli BL21 (DE3); test: T‐Surf phage library (P8 and P3) selection against MyD88^TIR, four rounds, NGS read counts; format: binding; settings: P3_MyD88: rank by count after grouping
Metric: Rank (after)

Solved cases below.
> print(dat)
   biopolymer.sequence  observed
1      EWIREQLRPALKNGW       434
2  YAFTGHLHHALRLNKIETF        95

A. LKCGEPYFWSKLRYAM
B. SELRVVDKETDKIQTPLKNA
Which has the smaller recorded Rank (after), A or B ? Indicate which entry you chose by stating its label. A
(A: 137, B: 412)

a. RFWERLRPALKERLP
b. SRYREGLWRLLELSKK
I need your help: which of the pair a , b has higher Rank (after)? Indicate which entry you chose by stating its label. a
(a: 449, b: 123)

I. LSRVPGVHDFRGLVDI
II. YAFTGHLHSYLVQRSV
Which has the smaller recorded Rank (after), I or II ? Indicate which entry you chose by stating its label. II

a. NELVHVWCCKANSQAG
b. AVDKETDKIQTPLEM
I need your help: which of the pair a , b has higher Rank (after)? Indicate which entry you chose by stating its label. a

I. SSFRESLWRLLALNKR
II. SSLREGLWRLQELSKK
I need your help: which of the pair I , II has higher Rank (after)? Indicate which entry you chose by stating its label. I
(I: 395, II: 135)

A. SSFRRPVASAGTEQK
B. YTALTNSGFHTFLDNY
I need your help: which of the pair A , B has higher Rank (after)? Indicate which entry you chose by stating its label. A

P. LQNQWKLALNKVANLP
Q. EHHLDLPRGKAIKPAILG
Which has the smaller recorded Rank (after), P or Q ? Indicate which entry you chose by stating its label. Q
(Q: 152, P: 417)
